# Test system: Salmonella typhi H901 W
# MEASUREMENT_PROTOCOL: MIC against bacteria (Table I), strain (9)
# Type: cell-based
# DETAILS: Salmonella enterica, TYPHI
QUANTITY: MIC

INSERT INTO measurements (compound, experimental_value) VALUES
  ('O=C(O)CSc1nnc(SCC2=C(C(=O)O)N3C(=O)[C@@H](NC(=O)[C@H](NC(=O)c4csccc4=O)c4ccccc4)[C@H]3SC2)s1 [Example 10]', '1.56 µg/mL'),
  ('Cc1nnc(SCC2=C(C(=O)O)N3C(=O)[C@@H](NC(=O)Cn4cnnn4)[C@H]3SC2)s1 [Cephazolin, reference compound]', '1.56 µg/mL'),
  ('O=C(O)CCC(=O)Nc1nnc(SCC2=C(C(=O)O)N3C(=O)[C@@H](NC(=O)[C@H](NC(=O)c4csccc4=O)c4ccccc4)[C@H]3SC2)s1 [Example 1]', '1.56 µg/mL'),
  ('CC(=O)OCC1=C(C(=O)O)N2C(=O)[C@@H](NC(=O)[C@H](N)c3ccccc3)[C@H]2SC1 [Cephaloglycin, reference compound]', '3 µg/mL'),
  ('Cc1nc(SCC(=O)O)cc(SCC2=C(C(=O)O)N3C(=O)[C@@H](NC(=O)[C@H](NC(=O)c4cnccc4O)c4ccccc4)[C@H]3SC2)n1 [Example 17]', '3.13 µg/mL'),
  ('CC(C)(Sc1nnc(SCC2=C(C(=O)O)N3C(=O)[C@@H](NC(=O)[C@H](NC(=O)c4cnccc4O)c4ccccc4)[C@H]3SC2)s1)C(=O)O [Example 22]', '3.13 µg/mL'),
  ('Nn1c(SCC(=O)O)nnc1SCC1=C(C(=O)O)N2C(=O)[C@@H](NC(=O)[C@H](NC(=O)c3cnccc3O)c3ccccc3)[C@H]2SC1 [Example 30]', '6.25 µg/mL'),
  ('Cc1ncc(C(=O)N[C@@H](C(=O)N[C@@H]2C(=O)N3C(C(=O)O)=C(CSc4nnc(SCC(=O)O)s4)CS[C@H]23)c2ccccc2)c(O)n1 [Example 20]', '12.5 µg/mL'),
  ('O=C(O)CSc1cc(SCC2=C(C(=O)O)N3C(=O)[C@@H](NC(=O)[C@H](NC(=O)c4cnccc4O)c4ccccc4)[C@H]3SC2)ncn1 [Example 16]', '1.56 µg/mL'),
  ('Cc1nc(SCC2=C(C(=O)O)N3C(=O)[C@@H](NC(=O)[C@H](NC(=O)c4cnccc4O)c4ccccc4)[C@H]3SC2)sc1C(=O)O [Example 14]', '1.56 µg/mL');
